Biological target: Toll-like receptor 4 (Homo sapiens)
Sequence (O00206 whole entry): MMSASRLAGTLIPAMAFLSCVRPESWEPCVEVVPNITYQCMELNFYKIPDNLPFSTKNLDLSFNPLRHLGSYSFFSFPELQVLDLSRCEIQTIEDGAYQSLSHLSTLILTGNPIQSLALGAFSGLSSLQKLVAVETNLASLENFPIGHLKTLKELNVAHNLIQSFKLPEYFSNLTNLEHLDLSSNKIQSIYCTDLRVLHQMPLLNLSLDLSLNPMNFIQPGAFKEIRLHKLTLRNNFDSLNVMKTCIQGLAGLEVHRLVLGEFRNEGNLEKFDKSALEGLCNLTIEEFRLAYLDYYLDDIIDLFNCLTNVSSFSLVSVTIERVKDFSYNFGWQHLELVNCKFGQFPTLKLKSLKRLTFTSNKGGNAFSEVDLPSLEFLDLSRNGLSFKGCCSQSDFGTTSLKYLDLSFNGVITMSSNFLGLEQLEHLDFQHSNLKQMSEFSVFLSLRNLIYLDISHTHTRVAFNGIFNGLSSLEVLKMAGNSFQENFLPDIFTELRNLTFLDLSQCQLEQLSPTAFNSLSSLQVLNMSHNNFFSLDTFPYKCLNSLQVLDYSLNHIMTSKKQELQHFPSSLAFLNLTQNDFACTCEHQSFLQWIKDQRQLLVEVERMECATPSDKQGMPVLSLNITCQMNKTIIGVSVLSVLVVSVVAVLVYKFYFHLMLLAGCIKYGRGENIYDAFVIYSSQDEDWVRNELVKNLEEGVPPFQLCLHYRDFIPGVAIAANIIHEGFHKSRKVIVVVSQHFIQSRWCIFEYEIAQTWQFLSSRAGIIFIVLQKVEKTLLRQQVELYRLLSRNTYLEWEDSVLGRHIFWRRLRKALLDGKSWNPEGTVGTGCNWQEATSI
Assay: Antagonist activity at human TLR4 expressed in LPS-stimulated HEK293 cells co-expressing MD-2 and CD14 after 2 hrs by SEAP assay
MEASUREMENT KIND: IC50

- COMPOUND STRING: "N/C(=N\\C(=O)c1ccc(-c2ccccc2)cc1)Nc1nc2ccccc2o1"
  IC50: "ND(Insoluble)"
- COMPOUND STRING: "COc1ccc(NC(=N)Nc2nc(C)c(Cc3ccccc3)c(O)n2)cc1"
  IC50: "ND(Insoluble)"
- COMPOUND STRING: "O=C(CSc1nnc(-c2ccc3c(c2)OCCO3)c(O)n1)Nc1ccc(F)cc1"
  IC50: "ND(Insoluble)"
- COMPOUND STRING: "O=C(NCCNC(=O)c1cc2ccccc2[nH]1)C(=O)NCc1ccc2c(c1)OCO2"
  IC50: "Not Active"
- COMPOUND STRING: "COc1ccc(OC[C@H](O)CN2CCc3ccccc3C2)cc1"
  IC50: "ND(Insoluble)"
- COMPOUND STRING: "O=C(CCc1nc(O)c2c3c(sc2n1)CCCC3)NCC(=O)Nc1ccccc1Br"
  IC50: "ND(Insoluble)"
- COMPOUND STRING: "O=C(CSCC(=O)Nc1ccccc1)NNC(=O)Nc1ccc(Cl)cc1"
  IC50: "ND(Insoluble)"
- COMPOUND STRING: "Cc1ccc(C(=O)Nc2c(N)nc(SCC(=O)NCc3ccc4c(c3)OCO4)[nH]c2=O)cc1"
  IC50: "ND(Insoluble)"
- COMPOUND STRING: "CC(C)(C)[C@@H]1CCc2c(sc3nc(CCC(=O)N4CCN(c5ccccn5)CC4)[nH]c(=O)c23)C1"
  IC50: "ND(Insoluble)"
- COMPOUND STRING: "Cc1cccc(NC(=O)CNC(=O)CCc2nc(O)c3c4c(sc3n2)CCCC4)c1C"
  IC50: "ND(Insoluble)"

Prompt: State the recorded IC50 for this entry: COc1ccc(NC(=O)CN(C)C(=O)c2cc(-c3ccc(C)s3)[nH]n2)cc1
Completion: ND(Insoluble)

Prompt: State the recorded IC50 for this entry: O=C(CSCC(=O)Nc1ccccc1)NNC(=O)Nc1ccccc1
Completion: ND(Insoluble)

Prompt: State the recorded IC50 for this entry: CCN1CCN(CCNC(=O)[C@H](C)C2CCN(C(=O)c3cc4cc(Cl)ccc4[nH]3)CC2)CC1
Completion: ND(Insoluble)

Prompt: State the recorded IC50 for this entry: Cc1nn(Cc2ccccc2Cl)c(C)c1CN(C)C(=O)/C=C/c1ccc2c(c1)OCO2
Completion: Not Active

Prompt: State the recorded IC50 for this entry: Nc1nc(CSc2nnc(Cc3ccccc3F)n2N)nc(Nc2ccc(Cl)cc2)n1
Completion: Not Active

Prompt: State the recorded IC50 for this entry: COc1cccc(NC(=O)/C=C(\C)NNC(=O)c2ccc(-c3ccccc3)cc2)c1
Completion: ND(Insoluble)

Prompt: State the recorded IC50 for this entry: COC(=O)c1ccc(/C=N/NC(=O)c2cc(-c3cccc([N+](=O)[O-])c3)[nH]n2)cc1
Completion: ND(Insoluble)

Prompt: State the recorded IC50 for this entry: CC(C)(C)[C@H]1CCc2c(sc3nc(CCC(=O)NCc4ccc5c(c4)OCO5)[nH]c(=O)c23)C1
Completion: ND(Insoluble)

Prompt: State the recorded IC50 for this entry: O=C(CSc1nnc(-c2ccc3c(c2)OCCO3)c(O)n1)Nc1ccc(F)c(F)c1
Completion: ND(Insoluble)

Prompt: State the recorded IC50 for this entry: Cc1nn(Cc2ccccc2Cl)c(C)c1CN(C)CCn1nc2ccccn2c1=O
Completion: Not Active
